system: sicklepod (Cassia obtusifolia, CASOB); assay: Pre-emerge test, greenhouse herbicide activity screening; assay type: in vivo; conditions: pre-emerge, 63 g ai/ha, 14 days after application, scale 0-100
Returns: string. Value is T if measured phytotoxicity rating CASOB is below 20, and F if it is greater than or equal to it.

Worked examples follow.
| query.smiles | group.label |
| --- | --- |
| C=Cc1ccc(C(=O)Nc2c(OC)c(Br)cc(F)c2-n2c(=O)cc(C(F)(F)F)n(C)c2=O)cc1 | T |
| COc1c(Cl)cc(F)c(-n2c(=O)cc(C(F)(F)F)n(C)c2=O)c1NC(=O)CCc1ccccc1C | F |
| C=Cc1ccc(C(=O)N(C(=O)c2ccc(C=C)cc2)c2c(OC)c(Br)cc(F)c2-n2c(=O)cc(C(F)(F)F)n(C)c2=O)cc1 | T |
| COc1c(Cl)cc(F)c(-n2c(=O)cc(C(F)(F)F)n(C)c2=O)c1NC(=O)CSC(C)C | F |

Identify whether the molecule Cn1c(C(F)(F)F)cc(=O)n(-c2ccc(Cl)cc2NC(=O)c2ccc3ccccc3c2)c1=O records phytotoxicity rating CASOB below 20.
F

Identify whether the molecule COc1c(Cl)cc(F)c(-n2c(=O)cc(C(F)(F)F)n(C)c2=O)c1NC(=O)c1ccc2cccc(F)c2c1 records phytotoxicity rating CASOB below 20.
T

###

test system: lambsquarters (Chenopodium album, CHEAL); assay: Post-emerge test, greenhouse herbicide activity screening; type: in vivo; conditions: 250 g ai/ha; post-emerge; 14 days after application; rating scale 0-100
molecules and their reported Post-emerge Herbicidal Activity CHEAL (phytotoxicity rating)
The answer should be written as a number, with no unit following it.

Below: 5 molecules and their reported Post-emerge Herbicidal Activity CHEAL (phytotoxicity rating).
| query.smiles | measured.result |
| --- | --- |
| COc1c(Cl)cc(F)c(-n2c(=O)cc(C(F)(F)F)n(C)c2=O)c1NN=CCc1ccccc1 | 100 |
| Cn1c(C(F)(F)F)cc(=O)n(-c2c(Cl)cc(Cl)cc2OC(=O)c2ccc(F)cc2F)c1=O | 0 |
| COc1c(Cl)cc(F)c(-n2c(=O)cc(C(F)(F)F)n(C)c2=O)c1NN | 100 |
| COc1c(Cl)cc(F)c(-n2c(=O)cc(C(F)(F)F)n(C)c2=O)c1SC(C)C | 40 |
| CCOC(=O)CC(C)=NNc1c(OC)c(Cl)cc(F)c1-n1c(=O)cc(C(F)(F)F)n(C)c1=O | 100 |

Proceed to the following item.
Please indicate Post-emerge Herbicidal Activity CHEAL (phytotoxicity rating) recorded for COc1c(Cl)cc(F)c(-n2c(=O)cc(C(F)(F)F)n(C)c2=O)c1NN=Cc1ccc2ccccc2c1
100

###

test system: field corn (Zea mays L., var. Dekalb 535, CORN); experiment: Pre-emerge test, crop safety; assay type: in vivo; conditions: pre-emerge, 63 g ai/ha, 14 days after application, rating scale 0-100
compounds and their reported phytotoxicity rating CORN
The answer should be written as a number, with no unit following it.

Below: 3 compounds and their reported phytotoxicity rating CORN.
| compound | phytotoxicity rating CORN |
| --- | --- |
| C=CC=NNc1c(OC)c(Cl)cc(F)c1-n1c(=O)cc(C(F)(F)F)n(C)c1=O | 75 |
| COc1c(Cl)cc(F)c(-n2c(=O)cc(C(F)(F)F)n(C)c2=O)c1NN=CCc1ccccc1 | 95 |
| CCOC(=O)C(Cl)Cc1cc(Cl)cc(F)c1-n1nc(C)n(C(F)F)c1=O (centres unmarked) | 0 |

State measured phytotoxicity rating CORN of the compound COc1c(Cl)cc(F)c(-n2c(=O)cc(C(F)(F)F)n(C)c2=O)c1NNC(=O)c1ccccc1 with field corn (Zea mays L., var. Dekalb 535, CORN).
90

State measured phytotoxicity rating CORN of the compound CCOC(=O)C(Cl)Cc1c(C)c(Cl)cc(F)c1-n1c(=O)cc(C(F)(F)F)n(C)c1=O (centres unmarked) with field corn (Zea mays L., var. Dekalb 535, CORN).
0

State measured phytotoxicity rating CORN of the compound COc1c(Cl)cc(F)c(-n2c(=O)cc(C(F)(F)F)n(C)c2=O)c1NN=Cc1ccc(F)cc1F with field corn (Zea mays L., var. Dekalb 535, CORN).
65

State measured phytotoxicity rating CORN of the compound Cn1c(C(F)(F)F)cc(=O)n(-c2ccc(Cl)cc2C(=O)c2ccccc2)c1=O with field corn (Zea mays L., var. Dekalb 535, CORN).
0

State measured phytotoxicity rating CORN of the compound CCOC(=O)C(Cl)(C#N)Cc1c(OC)c(Cl)cc(F)c1-n1c(=O)cc(C(F)(F)F)n(C)c1=O (centres unmarked) with field corn (Zea mays L., var. Dekalb 535, CORN).
0
